target: M3 muscarinic receptor subtype (M3ムスカリン性レセプターサブタイプ) (Homo sapiens); construct: expressed in transfected cells; membrane preparation; experiment: Assay 1: radioligand binding assay ([3H]-NMS displacement)
Sequence (P20309 whole entry): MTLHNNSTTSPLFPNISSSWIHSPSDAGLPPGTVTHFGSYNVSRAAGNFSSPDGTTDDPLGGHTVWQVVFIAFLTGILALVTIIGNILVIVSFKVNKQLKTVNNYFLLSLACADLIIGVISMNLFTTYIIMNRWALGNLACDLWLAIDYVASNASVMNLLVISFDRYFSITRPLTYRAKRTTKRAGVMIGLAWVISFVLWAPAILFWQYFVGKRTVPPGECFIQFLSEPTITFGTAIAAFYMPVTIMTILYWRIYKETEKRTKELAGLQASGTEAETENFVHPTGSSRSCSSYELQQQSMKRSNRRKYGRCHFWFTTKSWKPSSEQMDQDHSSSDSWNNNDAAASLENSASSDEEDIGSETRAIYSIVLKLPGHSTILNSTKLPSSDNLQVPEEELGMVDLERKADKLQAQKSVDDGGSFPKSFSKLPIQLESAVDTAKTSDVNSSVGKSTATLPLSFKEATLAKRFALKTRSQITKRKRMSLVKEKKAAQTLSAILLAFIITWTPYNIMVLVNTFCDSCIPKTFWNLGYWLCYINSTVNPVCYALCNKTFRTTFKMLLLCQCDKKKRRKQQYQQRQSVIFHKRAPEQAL
measured.property: Ki

-- ask Entry CN(CCN1CCC(OC(=O)Nc2ccccc2-c2ccccc2)CC1)C(=O)c1ccc(CN2CCC(C(N)=O)CC2)cc1 : reported Ki = ?
-- reply < 5 nM

----------
biological target: hM3 receptor (hM3レセプター) (Homo sapiens, UniProt P20309); assay: Assay 2C: blockade of agonist-mediated calcium release via FLIPR assay
pKi: −log10 of the molar value.
measured.property: pKi

-- ask Under hM3 receptor (hM3レセプター) (Homo sapiens, UniProt P20309): pKi value of CN(CCN1CCC(OC(=O)Nc2ccccc2-c2ccccc2)CC1)C(=O)c1ccc(CN2CCC(C(N)=O)CC2)cc1 ?
-- reply > 8.30
